- System: ACHN renal
- protocol_description: NCI tumour cell line growth inhibition, 48 h
reported_endpoint: TGI

Q: // query TGI value for entry CC(=O)OC1C[C@@H](C)C2(C[C@H](O)c3ccoc3)C(=O)OC[C@]13C2CCC(O)C31CO1 (stereo partly specified)
Ans: > 100 µM

Q: // query TGI value for entry `O=C(O)c1ccccc1SCc1cccc2c(=O)c3ccc(Cl)cc3oc12`
Ans: > 50 µM

Q: // query TGI value for entry `CCOC(=O)c1ccc2c(c1)c1c(C)c3ccncc3c(C)c1n2C`
Ans: 1.32 µM

Q: // query TGI value for entry `Cc1cc2c(c(C(N)=O)c1C)-c1cccc(Cl)c1C2=O`
Ans: > 100 µM

Q: // query TGI value for entry `CC(C)(O)c1coc(S(=O)(=O)/N=C(\O)Nc2c3c(cc4c2CCC4)CCC3)c1`
Ans: > 100 µM

Q: // query TGI value for entry COc1ccc2c(c1OC)CN1CCc3cc4c(cc3C1C2)OCO4 (stereo unspecified)
Ans: > 100 µM

Q: // query TGI value for entry `CCOC(=O)c1cc(NC(=O)c2cc(NC(=O)c3cc(NC(=O)c4c(-c5ccccc5)noc4C)cn3C)cn2C)cn1C`
Ans: > 100 µM

Q: // query TGI value for entry CCOC1CN(C)C(=Nc2cccc3ccccc23)S1 (stereo unspecified)
Ans: > 10 µM

Q: // query TGI value for entry CSC1(C)CC2C(CC1N1CCCCC1)C2(C)C (stereo unspecified)
Ans: > 100 µM

Q: // query TGI value for entry `O=c1nc2sc3ccc4ccccc4c3n2nc1-c1ccccc1`
Ans: 87.4 µM

Q: // query TGI value for entry COc1ccccc1N1C(=O)C2C3c4ccccc4C(OC(C)=O)(c4ccccc43)C2C1=O (stereo unspecified)
Ans: > 100 µM

Q: // query TGI value for entry `CCOC(=O)C=C1CCC2(CC1)OCCO2`
Ans: > 100 µM

Q: // query TGI value for entry CCN1C/C(=C\c2cc(OC)c(OC)c(OC)c2)C2=NN(c3ccccc3)C(c3cc(OC)c(OC)c(OC)c3)C2C1 (stereo unspecified)
Ans: > 36 µM

Q: // query TGI value for entry `C=C(Br)CN(C)CC(=C)Br`
Ans: > 100 µM

Q: // query TGI value for entry `CC(C)=CC(=O)OCC(=O)O[C@@H]1C[C@]2(C(C)C)O[C@@]1(C)[C@@H]1CC[C@@H](C)[C@H]1[C@@H]2OC(=O)/C=C/c1ccccc1`
Ans: > 19.6 µM

Q: // query TGI value for entry `O=c1c2ccccc2nc(/C=C(\O)c2ccccc2)n1-c1ccccc1Cl`
Ans: > 100 µM

Q: // query TGI value for entry `O=c1c(O)c(O)c1=O.[NH2-].[NH2-].[NH2-].[NH2-].[NH2-].[Ru+5]`
Ans: > 100 µM

Q: // query TGI value for entry `COc1c(Br)cc(Br)c(OC)c1-c1ccc[nH]1`
Ans: > 100 µM

Q: // query TGI value for entry `O=C1C[C@H](Sc2ccccc2)C2(OCCO2)[C@H]2ON3CCC[C@@H]3[C@@H]12`
Ans: 5.55 µM

Q: // query TGI value for entry Nc1nc2c(c3cnccc13)C(c1cccc(Br)c1)Cc1cnccc1-2 (stereo unspecified)
Ans: 12.5 µM

Q: // query TGI value for entry `OC(Cc1cccnc1)(c1ccccc1)c1ccccc1`
Ans: > 100 µM

This collection of values is drawn from PubChem BioAssay (NCI).
